- TEST_SUMMARY: reduction of Shn3 3'UTR firefly luciferase signal, primary screen, Schnurri-3 inhibitor project, cell-based, Clone20 osteoblasts, set 2 (AID 588674);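 note: 0% = median of neutral control wells and 100% = pilot-screen positive control compound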
- PROTOCOL_CONDITIONS: Clone20 osteoblast Shn3 3'UTR firefly luciferase, 24 h; at 12.5 µM
The campaign covered roughly 360,000 compounds. About 1,800 (0.5%) were called active.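 Rule for the calls: active = mean inhibition of at least 75% with every replicate also reaching 75%; inconclusive = mean inhibition at least 75% but some replicate below; inactive = mean inhibition below 75%.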 What follows is part of a selection rich in actives, with near analogues and random picks from the rest.
Thanks in advance; please answer with one of these: active, inactive

Prompt: How was `Cc1cc(C)nc(N/N=C/c2c(CO)cnc(C)c2O)n1` classified in this test?
Response: inactive

Prompt: What outcome does the record of this test show for `O=C(/C=C/c1ccc([N+](=O)[O-])cc1)NCCSCc1ccco1` ?
Response: inactive

Prompt: Could you kindly confirm the outcome this assay logged for CC(OC(=O)c1cccnc1Cl)C(=O)NC1CCCCC1 (configuration not stated) ?
Response: inactive

Prompt: Outcome logged for `O=C(CCl)Nc1cccc(CP(=O)(c2ccccc2)c2ccccc2)c1` in this assay:
Response: inactive

Prompt: Which outcome was entered for the molecule COc1ccc(CN2CCCC(CNC(=O)c3ccc(F)cc3)C2)cc1OC (configuration not stated) in this test?
Response: inactive

Prompt: Record request — test call for `CCCN(CCC)CCNC(=O)c1cc2c(C)nc3ccccc3c2o1`
Response: inactive

Prompt: Look up the recorded call for `CNS(=O)(=O)c1cccc(C(=O)OCCCC(=O)c2ccccc2)c1` in this test.
Response: inactive

Prompt: Could you please tell me the result logged for `CCOc1ccc(-n2c(SCC(=O)Nc3cc(C(=O)O)ccc3Cl)nc3ccccc3c2=O)cc1` in this assay?
Response: inactive

Prompt: # fetch the recorded call for `c1ccc(-c2nccc(-c3ccc(-n4cnc5ccccc54)cc3)n2)nc1` here
Response: inactive

Prompt: Could you check what this test reported for `O=C(CSC1=NS(=O)(=O)c2cc(F)ccc2N1)Nc1ccccc1F` ?
Response: inactive

Prompt: For `N#Cc1c(NC(=O)c2ccc(N3CCOCC3)c([N+](=O)[O-])c2)sc2c1CCCC2` , which call appears in the assay record?
Response: inactive

Prompt: What was the test verdict on `CCOc1ccc(-n2c(O)c(/C=N/Nc3nc(C)cc(C)n3)c3ccccc3c2=O)cc1` ?
Response: active

* * *

- TEST_SUMMARY: reduction of Shn3 3'UTR firefly luciferase signal, primary screen, Schnurri-3 inhibitor project, cell-based, Clone20 osteoblasts, set 2 (AID 588674);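 note: 0% = median of neutral control wells and 100% = pilot-screen positive control compound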
- PROTOCOL_CONDITIONS: Clone20 osteoblast Shn3 3'UTR firefly luciferase, 24 h; at 12.5 µM
Hit rate of the full screen: of about 360,000 compounds, about 1,800 (0.5%) were called active.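 Rule for the calls: active = mean inhibition of at least 75% with every replicate also reaching 75%; inconclusive = mean inhibition at least 75% but some replicate below; inactive = mean inhibition below 75%.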 Shown is part of a subset that was picked to be rich in actives.
Response enum: y = active, n = inactive

Prompt: // param item: `O=C(CCS(=O)(=O)c1ccccc1)Nc1nc2c(s1)CCCC2` ; yields the recorded call
Response: y

Prompt: Per the records of this test, what outcome belongs to `COc1ccccc1NC(=O)COC(=O)Cc1ccc(S(=O)(=O)N2CCCCC2)s1` ?
Response: n

Prompt: Hey, what did the test say about O=C(O)C1C2C=CC(O2)C1C(=O)Nc1ccccn1 (stereo unspecified) ?
Response: n

Prompt: For this compound, state the assay outcome: `C/C(N)=C(/C#N)C(=O)COC(=O)C1CCN(C(=O)c2ccc(Cl)cc2)CC1`
Response: n

Prompt: State the result this test recorded for `O=C(C=CC(=O)Nc1ccc(F)cc1F)Nc1ccc(F)cc1F` .
Response: n

Prompt: Query: recorded result category for COc1ccc(SCc2noc(C(=O)NCC3CCCO3)c2C(=O)O)cc1 (stereo unspecified) in this test
Response: n

Prompt: Could you kindly confirm the outcome this assay logged for `O=C(CSc1nc(O)c(Cc2ccccc2)c(=O)[nH]1)Nc1nc2c(s1)CCCC2` ?
Response: n

Prompt: What is the recorded call for this compound in the test? COc1ccc(NC(=O)C2Cc3c(-c4ccc5c(c4)OCO5)ccnc3O2)cn1 (stereo unspecified)
Response: n

Prompt: Outcome logged for `COc1ccc(C)cc1-n1nnnc1SCC(=O)c1cc(C)n(Cc2ccco2)c1C` in this assay:
Response: n

Prompt: Call for entry `COc1cccc(CN(C)CC(=O)Nc2sc3c(c2C#N)CCC3)c1` :
Response: n

Prompt: Dear all, I need the recorded test outcome for `Oc1ccc2ccccc2c1N=Nc1nccs1` , thank you.
Response: y

* * *

- TEST_SUMMARY: reduction of Shn3 3'UTR firefly luciferase signal, primary screen, Schnurri-3 inhibitor project, cell-based, Clone20 osteoblasts, set 2 (AID 588674);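 note: 0% = median of neutral control wells and 100% = pilot-screen positive control compound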
- PROTOCOL_CONDITIONS: Clone20 osteoblast Shn3 3'UTR firefly luciferase, 24 h; at 12.5 µM
Among all 360,000 compounds or so, about 1,800 (0.5%) were called active.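 The calls were made as follows: active = mean inhibition of at least 75% with every replicate also reaching 75%; inconclusive = mean inhibition at least 75% but some replicate below; inactive = mean inhibition below 75%.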 Only a selection was taken, and actives are over-represented in it overall.
Choose one outcome from this list and give only that: 1 (yes) = active, 0 (no) = inactive

Prompt: Record request — test call for `CSc1ccccc1NC(=O)c1ccc2c(c1)CCN2S(C)(=O)=O`
Response: 0 (no)

Prompt: Kindly provide the recorded test outcome for the following compound: `COC(=O)CN1C(=O)C(C)(C)Oc2ccc(C(=O)Nc3cccc(OC)c3)cc21`
Response: 0 (no)

Prompt: What did this assay record as the result for `COc1ccc(CNc2ncnc3ccccc23)cc1` ?
Response: 1 (yes)

Prompt: Field: outcome | Entry: `c1ccc(CNc2ncnc3[nH]ncc23)cc1`
Response: 0 (no)

Prompt: # outcome recorded in this test, key = `O=C(O)CSc1nccn1-c1cccc(Cl)c1`
Response: 0 (no)

Prompt: Give the logged outcome of this assay for the following compound: `Cn1c2ccc(F)cc2c2nnc(NN)nc21`
Response: 0 (no)

Prompt: Called result for `CCOC(=O)/C(=N\Nc1ccccc1[N+](=O)[O-])c1csc(Nc2ccccc2)n1`
Response: 0 (no)

Prompt: For this compound, state the assay outcome: `Cc1ccc(C)c(S(=O)(=O)N2CCN(CC(=O)Nc3ccc([N+](=O)[O-])cc3)CC2)c1`
Response: 0 (no)

Prompt: Tell me the recorded outcome of this test for `Cn1c(SCC(=O)N2CCCc3ccccc32)nc2ccccc2c1=O` .
Response: 1 (yes)

Prompt: Identify the outcome logged in this assay for the compound shown: O=C(NCCCN1CCCCC1)C1CCCN(c2ncnc3c2nc2n3CCCCC2)C1 (stereo unspecified)
Response: 0 (no)

Prompt: Which outcome did this test record for the compound `Cc1ccc(-c2cn3cc(C)ccc3n2)cc1` ?
Response: 1 (yes)

* * *

- TEST_SUMMARY: reduction of Shn3 3'UTR firefly luciferase signal, primary screen, Schnurri-3 inhibitor project, cell-based, Clone20 osteoblasts, set 2 (AID 588674);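 note: 0% = median of neutral control wells and 100% = pilot-screen positive control compound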
- PROTOCOL_CONDITIONS: Clone20 osteoblast Shn3 3'UTR firefly luciferase, 24 h; at 12.5 µM; stronger effect = higher value
About 1,800 (0.5%) of roughly 360,000 compounds were called active. What follows is part of a selection rich in actives, with near analogues and random picks from the rest.
MEASUREMENT_LABEL: inhibition (%)
Kindly provide the numeric value in % only, without the unit symbol.

What the record says about COCCn1c(SC(C)C(=O)NC2CC2)nnc1-c1cccc(C)c1 (configuration not stated) : inhibition is 1.3

Sure, the documented inhibition for Cc1cccc(N2CCN(C(c3ccccc3)c3nnnn3CC3CCCO3)CC2)c1C (configuration not stated) is 20.4

Entry `Cn1c(CCNS(=O)(=O)c2ccc(F)cc2)nnc1SCc1cccnc1` ; inhibition = -8.53

So, `C=CCOc1ccccc1NC(=O)CN1C(=O)CNC1=O` ? Its inhibition was -14.9

Entry `CCc1ccc(N2CC(O)=C(c3nc4ccccc4c(=O)[nH]3)C2=N)cc1` — recorded inhibition = -17

For record O=C(COC(=O)C1CC2CCCC(C1)C2=O)NC(=O)c1ccccc1 (configuration not stated) the listed inhibition is 14.5

inhibition reported for this compound `O=C(O)c1[nH]c2ccccc2c1C(c1cccc(O)c1)c1c(C(=O)O)[nH]c2ccccc12` : 0.858

According to the records, this compound `NC(=O)C1CCN(C(=O)c2cc(S(=O)(=O)N3CCN(c4ccccc4)CC3)ccc2Cl)CC1` displays inhibition of -11.1

Summary for this compound, `COc1ccc(CCNC(=O)CN(C)S(=O)(=O)c2ccc3nc(C)sc3c2)cc1OC` : inhibition is -10.6

In plain terms, `NC(=O)C1CCN(Cc2nc3c(Br)cc(Br)cc3c(=O)[nH]2)CC1` has a documented inhibition of 9.29

Recorded inhibition (compound `Cc1ccccc1NC(=O)Cc1nc(COC(=O)C(C)(C)Oc2ccc(Cl)cc2)cs1` ): -2.77

# compound `COc1cccc(/C=N/Nc2cc(C)nc(-c3ccccc3O)n2)c1O` ; its inhibition = 86.9

For record Cc1cc(=O)oc2c3c(cc(OCC(=O)NCC(O)c4ccccc4)c12)OC(C)(C)CC3 (configuration not stated) the listed inhibition is 0.998

The compound listed as `N#Cc1c(-c2ccc(F)cc2)cc(C2CC2)nc1SCC(=O)c1cccs1` has a reported inhibition of -3.6

Query `COc1cncc(-c2cnc3sc(NCCc4ccccn4)nn23)c1` yields inhibition of 21.9

Input `CCCCCCNC(=O)O[C@H]1CN(C(=O)OC(C)C)N(C(=O)OC(C)C)[C@@H]2CN(S(=O)(=O)c3ccc(C)cc3)C[C@]12O` . Output inhibition: -14.9

Kindly note the recorded inhibition for Cn1nccc1C(=O)NC1CCCc2c1cnn2-c1ccc(F)cc1F (configuration not stated) , which is 77.1

Reported inhibition of COc1ccc(C(=O)NC2CCCc3c2cnn3-c2cccc(C)c2C)c(OC)n1 (configuration not stated) : 84.1

The compound listed as `Cc1ccc(S(=O)(=O)/N=C(/NC(=S)Nc2c(C)n(C)n(-c3ccccc3)c2=O)c2ccccc2)cc1` shows inhibition equal to -6.62

Lab note: measured inhibition of O=C(Nc1cc2c3c(c1)C1CCCC1CN3CC1CCCC21)c1ccc([N+](=O)[O-])cc1 (configuration not stated) was 88.9

Short answer for CC1CC(NC(=S)N(C)C)CC(C)(C)C1 (configuration not stated) : inhibition was -11.6

Kindly note the recorded inhibition for `Cc1noc(C)c1COC(=O)Cn1c(C)nc2ccccc21` , which is 6.2

Short answer for `CCCCCCCCCCOC(=O)Cn1c(COc2ccc(C)cc2)[n+](C)c2ccccc21` : inhibition was 94.3

Note to self: inhibition recorded for `COC(=O)c1sc(C(F)(F)F)c(-c2ccccc2)c1S(=O)(=O)N(C)C` was 10.9

// Cc1sc2ncnc(SCC(=O)NC3CCS(=O)(=O)C3)c2c1C (configuration not stated) : inhibition value = -6.98

Lookup result for `C=CCOc1nc2c(c(=O)n(C)c(=O)n2C)n1Cc1ccc(Cl)cc1Cl` ; measured inhibition: 86.3

# inhibition (compound: `O=C(COC(=O)c1ccccc1SCC(=O)N1CCCC1)Nc1ccccc1OC(F)F` ) is -12.8

Reported inhibition for `FC(F)(F)c1cccc(-c2nc(COc3ccc(Cl)cc3Cl)no2)c1` was 6.45

Record summary for CN(CC1CCCO1)S(=O)(=O)c1ccc(C(=O)Nc2ccc([N+](=O)[O-])cc2)cc1 (configuration not stated) : reported inhibition = 39.9

The reported inhibition of the compound `NS(=O)(=O)c1ccc(CNC(=S)NC(=O)c2ccco2)cc1` was 93.5

Query `Cc1ccc(S(=O)(=O)N2C[C@]3(O)C[C@@H]4C(=O)N(c5ccccc5)C(=O)[C@@H]4C[C@]3(OC(=O)NC3CC3)C2)cc1` yields inhibition of 7.81

Reported inhibition ( COc1cc(NC(=S)N2CCCC(C)C2)cc(OC)c1OC (configuration not stated) ) = -25.8

The recorded inhibition for entry `Cc1ccc(NC(=S)N2CCCC(c3ccccc3)=N2)cc1` equals 20.9

Sure, the documented inhibition for `CC(=O)N1CCCc2cc(S(=O)(=O)CCC(=O)N3CCN(c4ccccc4)CC3)ccc21` is -3.7

Record `CCNC(=S)N1CCN(c2ncccn2)CC1` . Reported inhibition: -18.4

What the record says about `C/C(=N/NC(=O)c1ccn(C)n1)c1ccncc1` : inhibition is -3.15

Looking up `COC(=O)CC(CC(=O)OC)n1cccc1` , I found its inhibition recorded as -11.6

Briefly, inhibition measured for `COc1ccc(-c2c(C#Cc3ccsc3)c3cc(-c4ccc(CN5CCOCC5)cc4)ccc3n2C)cc1` : 10.2

// field: inhibition; key: Cn1nccc1C(=O)NC1CCCc2c1cnn2-c1ccccc1F (configuration not stated) ; value = 90.2

// sample `O=C(NC1=CC(=O)c2ccccc2C1=O)c1ccccc1` , its inhibition was 93.6

Item: `COc1ccc(C(C#N)=C2C=CC(=NO)c3ccccc32)cc1` | inhibition: 18.4

Summary for this compound, `Cc1ccc2c(c1)N(C(=O)CCC(=O)N1CCc3ccccc3C1)CCO2` : inhibition is 11.3
